Data provenance: ChEMBL document CHEMBL1158175

# TARGET_OR_SYSTEM: Sigma non-opioid intracellular receptor 1 (Rattus norvegicus)
# EXPERIMENT_SUMMARY: Displacement of [3H] (+)-pentazocine from sigma 1 receptor in rat liver homogenate at 100 nM
# Type: tissue-based
QUANTITY_KIND: Activity (%)

                                     smiles                          target_or_system  numeric_result
0  Cc1cccc(CN(C)CCCc2cn(-c3ccc(F)cc3)c3ccccc23)c1  Sigma non-opioid intracellular receptor 1 (Rattus norvegicus)              63

I: CN(CCCCc1cn(-c2ccc(F)cc2)c2ccccc12)Cc1ccccc1
II: CN(CCCc1cn(-c2ccc(F)cc2)c2ccccc12)Cc1cccc(Br)c1
q: Return label of the item with the larger Activity. Candidates: I , II . Answer by stating the label of the chosen item.
a: I
